# ASSAY_REMARKS: Volume of distribution at steady state in iv dosed rat
# Format: ADME, organism-based
# TEST_CONDITIONS: in vivo, read-out: Vdss
REPORTED_METRIC: Vd (L/kg)
Output spec: scalar in L/kg, unitless text.

In: # Vd lookup, item NC(CCCCB(O)O)(C(=O)O)C1CCN(Cc2ccc(Cl)c(Cl)c2)CC1 (racemic)
Out: 1.51

***
In: # Vd lookup, item NC(CCCCB(O)O)(C(=O)O)C1CC2CCC(C1)N2Cc1ccc(Cl)c(Cl)c1 (racemic)
Out: 0.918

###

Measured IC50, listed per entry.
# SYSTEM_NAME: UniProt:P78540
# Sequence (P78540 whole entry): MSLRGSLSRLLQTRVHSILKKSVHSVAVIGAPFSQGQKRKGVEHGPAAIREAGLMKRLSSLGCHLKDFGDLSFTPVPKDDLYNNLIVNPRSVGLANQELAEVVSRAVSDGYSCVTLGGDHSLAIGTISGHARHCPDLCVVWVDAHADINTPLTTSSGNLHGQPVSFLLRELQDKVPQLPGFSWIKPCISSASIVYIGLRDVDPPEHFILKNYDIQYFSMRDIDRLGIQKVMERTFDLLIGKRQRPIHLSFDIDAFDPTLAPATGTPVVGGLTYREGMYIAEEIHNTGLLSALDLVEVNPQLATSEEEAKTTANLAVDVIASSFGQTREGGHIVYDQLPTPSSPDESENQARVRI
Output spec: scalar in nM, unitless text.

Take a look at these entries with their results.
In: # IC50 lookup, item NC(CCCCB(O)O)(C(=O)O)C1CC2CCC(C1)N2Cc1ccc(F)c(F)c1 (racemic)
Out: 33

In: # IC50 lookup, item Cc1ccc(S(=O)(=O)N2CCC(C(N)(CCCCB(O)O)C(=O)O)CC2)cc1 (racemic)
Out: 4650

In: # IC50 lookup, item NC(CCCCB(O)O)(C(=O)O)C1CC2CCC(C1)N2Cc1ccc(Cl)c(Cl)c1 (racemic)
Out: 23

In: # IC50 lookup, item NC(CCCCB(O)O)(C(=O)O)C1CCNCC1 (racemic)
Out: 640

In: # IC50 lookup, item NC(CCCCB(O)O)(C(=O)O)C1CC2CCC(C1)N2Cc1ccc(Cl)cc1 (racemic)
Out: 30

In: # IC50 lookup, item NC(CCCCB(O)O)(C(=O)O)C1CCN(C(=S)NCc2ccc(Cl)cc2)CC1 (racemic)
Out: 1120

In: # IC50 lookup, item N[C@@H](CCCCB(O)O)C(=O)O
Out: 2150

In: # IC50 lookup, item NC(CCCCB(O)O)(C(=O)O)C1CCN(Cc2ccccc2)CC1 (racemic)
Out: 230

In: # IC50 lookup, item NC(CCCCB(O)O)(C(=O)O)C1CC2CCC(C1)N2 (racemic)
Out: 85

With those in mind, consider the next compound.
In: # IC50 lookup, item NC(CCCCB(O)O)(C(=O)O)C1CC2CCC(C1)N2Cc1ccccc1 (racemic)
Out: 47
